assaySummary: inhibitors of MT1-MMP promoter transcription, cell-based, luciferase reporter, luminescence (AID 618);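 further: actives suppress MT1-MMP promoter-driven transcription so potencies describe inhibitors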
experimentalConditions: MT1-MMP promoter luciferase reporter cells
Screen size: about 87,000 compounds; about 540 (0.62%) were called active. How the calls were made is not given here. Shown is part of a subset that was picked to be rich in actives. Entries with a potency or affinity are not part of this list.
Possible outcomes: active, inactive

# compound, discreteLabel
records = [
    ("CC(C)Cn1c(N)c(C(=O)COC(=O)c2cc(C(F)(F)F)nc3ccccc23)c(=O)n(C)c1=O", "inactive"),
    ("COc1ccc(-c2nnc(-c3ccc(N)cc3)o2)cc1", "inactive"),
    ("CCc1ccc(NC(=O)C(=O)NCCN2CCN(C(=O)c3ccco3)CC2)cc1", "inactive"),
    ("CCC(=O)N(Cc1ccc(S(N)(=O)=O)cc1)C1CC(=O)N(c2ccc(OC)cc2)C1=O (configuration not stated)", "inactive"),
    ("Nc1ccc2oc(-c3ccccc3Cl)nc2c1", "active"),
    ("Oc1ccc(F)cc1-c1cc(-c2ccc3c(c2)OCCO3)n[nH]1", "inactive"),
    ("CCN(CC)c1ccc2cc(C(C)=O)c(=O)oc2c1", "inactive"),
    ("O=C(CCC(=O)c1cccs1)NC(c1ccccc1)c1ccccc1", "inactive"),
    ("Cc1ccc(C)c(-c2nc3cc(N)ccc3o2)c1", "inactive"),
    ("Cc1ccc2nc(-c3cccc(S(=O)(=O)N(C)C)c3)cn2c1", "inactive"),
    ("O=C1CC(c2ccccc2)n2nc(NC(=O)c3cccs3)nc2N1 (configuration not stated)", "inactive"),
    ("Cc1cc2nnc(SCC(=O)N3C(C)CCCC3C)n2c(N)n1 (configuration not stated)", "inactive"),
    ("CN1/C(=C/C2CC(=O)N(c3cccc4ccccc34)C2=O)C(C)(C)c2ccccc21 (configuration not stated)", "inactive"),
    ("O=C(Cn1nc(C(=O)O)c2ccccc2c1=O)NCCC1=CCCCC1", "inactive"),
    ("Cc1ccc(NC(=O)CSc2nnc(Cn3cnc4ccccc43)o2)c(C)c1", "inactive"),
    ("c1ccc(OCCn2c(-c3ccco3)nc3ccccc32)cc1", "inactive"),
    ("COC(=O)c1ccc(S(=O)(=O)c2ccccc2)c(N)c1", "inactive"),
    ("Nc1nc2ccc(-c3nc4ccccc4o3)cc2s1", "inactive"),
    ("Cc1ccc(S(=O)(=O)NC2=NCN(C3CCCCC3)CN2)cc1", "inactive"),
    ("COc1ccc(-c2cn3cc(C)ccc3n2)cc1OC", "inactive"),
    ("CC(=O)Nc1c2c(nn1-c1ccc(C)cc1C)CSC2", "inactive"),
    ("CCN1C(=O)C(CC(=O)N2CCN(C(c3ccccc3)c3ccccc3)CC2)N(CC)C1=O (configuration not stated)", "inactive"),
    ("COc1ccc2[nH]c3nc(SCc4nnc(-c5ccccc5)o4)nnc3c2c1", "inactive"),
    ("COc1ccc(-c2nsc3c(N4CCN(S(=O)(=O)c5ccccc5)CC4)ncnc23)cc1", "inactive"),
    ("CCc1nnc2n1N=C(c1ccc(OC)cc1)CS2", "inactive"),
    ("COc1ccccc1NC(=O)CSc1nnnn1-c1ccc(C)cc1", "inactive"),
    ("Cc1ccc2nc(-c3ccccc3)cn2c1", "active"),
    ("COc1ccc(CNC(=O)c2ccc3c(c2)N(C)C(=O)CS3=O)cc1 (configuration not stated)", "inactive"),
    ("CC(C)n1c(-c2ccc(N(C)C)cc2)nc2ccccc21", "inactive"),
    ("O=C(O)c1ccccc1C(=O)N1CCN(c2cccc(Cl)c2)CC1", "inactive"),
    ("COC(=O)CSc1nnc(-c2ccncc2)o1", "inactive"),
    ("CCNS(=O)(=O)c1ccc(NC(=O)Cc2ccc(F)cc2)cc1", "inactive"),
    ("Cc1cc2c(c(=O)n1Cc1ccccn1)C(C(C)C)C(C#N)=C(N)O2 (configuration not stated)", "inactive"),
    ("Cc1ccc2c(c1)c1c3n2CCN(C(=O)CN2CCN(C)CC2)C3CCC1 (configuration not stated)", "inactive"),
    ("COC(=O)c1ccc(-c2nc3ccc(C)cc3o2)cc1", "inactive"),
    ("Cc1ccc2c(c1)c1c3n2CCCNC3CCC1 (configuration not stated)", "inactive"),
    ("Nc1ccc2oc(-c3cccc4ccccc34)nc2c1", "inactive"),
    ("Cc1ccc(-n2nc(C)c3c(C)cc(=O)[nH]c32)cc1", "inactive"),
    ("O=S(=O)(c1ccc(Br)cc1)N1CCCN(Cc2ccccc2F)CC1", "inactive"),
    ("Cc1sc2nc(SCC(=O)NCc3cccs3)[nH]c(=O)c2c1C", "inactive"),
    ("Cc1ccc(-n2nc3c(c2NC(=O)c2c(-c4ccccc4Cl)noc2C)CS(=O)(=O)C3)c(C)c1", "inactive"),
    ("Oc1ccccc1-c1cc(-c2ccc3c(c2)OCCO3)n[nH]1", "active"),
    ("O=C(Cn1cc2c(n1)CCCCC2)NC1CCCCCC1", "inactive"),
    ("CNCc1ccc(OCc2ccccc2)c(OC)c1", "inactive"),
    ("CCn1c(=O)c2c(nc3n2CC(C)CN3CCc2ccccc2)n(C)c1=O (configuration not stated)", "inactive"),
    ("Cc1ccc(NC(=O)C2CCN(C(=O)NC3CCCCC3)CC2)cc1", "inactive"),
    ("Cc1ccccc1-c1nc2cc(N)ccc2o1", "inactive"),
]

----------
assaySummary: inhibitors of MT1-MMP promoter transcription, cell-based, luciferase reporter, luminescence (AID 618);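 further: actives suppress MT1-MMP promoter-driven transcription so potencies describe inhibitors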
experimentalConditions: MT1-MMP promoter luciferase reporter cells
Screen size: about 87,000 compounds; about 540 (0.62%) were called active. The entries come from a sample that favours actives as a whole. Entries with a potency or affinity are not part of this list.

# compound, outcome
measured = [
    ("O=C(NC1CC1)c1ccc(-c2nc3ccccc3s2)s1", "active"),
    ("c1c2c(cc3sc(N4CCCCC4)nc13)OCCO2", "active"),
    ("CCCNC(=O)c1ccc(-c2nc3ccccc3s2)s1", "inactive"),
    ("O=S(=O)(c1ccc2c(c1)OCCO2)N1CCN(c2nc3ccccc3s2)CC1", "inactive"),
    ("c1c2c(cc3sc(N4CCOCC4)nc13)OCCO2", "active"),
    ("COc1cc(C)c(C(C)C)cc1S(=O)(=O)n1cnc(C)c1", "active"),
    ("O=C(OC1CCOC1=O)c1ccc(-c2nc3ccccc3s2)s1 (configuration not stated)", "inactive"),
    ("c1c2c(cc3sc(N4CCOCC4)nc13)OCO2", "inactive"),
    ("COc1ccc(NC(=O)NC(C)(C(F)(F)F)C(F)(F)F)cc1", "inactive"),
    ("COc1cc(C)c(Cl)cc1S(=O)(=O)n1cnc(C)c1", "inactive"),
    ("CC1=C(C)/C(=N\\OS(=O)(=O)c2ccccc2)C=CC1=O", "inactive"),
    ("COc1cc(C)c(C(C)C)cc1S(=O)(=O)n1ccnc1", "inactive"),
]

----------
assaySummary: inhibitors of MT1-MMP promoter transcription, cell-based, luciferase reporter, luminescence (AID 618);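 further: actives suppress MT1-MMP promoter-driven transcription so potencies describe inhibitors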
experimentalConditions: MT1-MMP promoter luciferase reporter cells
In all, about 87,000 compounds went through this assay and about 540 (0.62%) were called active. The sample as a whole holds a higher share of actives than the screen did. Results with a measured potency or affinity are listed apart.

# molecule, outcome
data = [
    ("COc1ccc(S(=O)(=O)N2CCN(c3ncnc4c(-c5ccccc5)nsc34)CC2)cc1", "inactive"),
    ("CCOc1ccccc1C(=O)N1CCN(c2cccc(Cl)c2)CC1", "active"),
    ("COc1ccccc1CC(=O)N1CCN(c2cccc(C(F)(F)F)c2)CC1", "inactive"),
    ("COc1ccccc1C(=O)N1CCN(c2cccc(C(F)(F)F)c2)CC1", "active"),
    ("COc1ccc(C(=O)N2CCN(c3cccc(Cl)c3)CC2)c(OC)c1", "inactive"),
    ("O=C(c1ccccc1F)N1CCN(c2cccc(C(F)(F)F)c2)CC1", "inactive"),
    ("Cc1nn(C)cc1C1C2=C(CC(C)(C)CC2=O)OC2=C1C(=O)CC(C)(C)C2", "inactive"),
    ("CC1=C(C)C(=O)N(c2ccc(C(=O)O)cc2)C1=O", "inactive"),
    ("COc1ccc(-c2nsc3c(N4CCCC4)ncnc23)cc1", "active"),
    ("CC1NC(=O)NC1CCCCC(=O)O (stereo unspecified)", "inactive"),
    ("COc1ccccc1C(=O)N1CCN(c2cccc(Cl)c2)CC1", "inactive"),
]

----------
assaySummary: inhibitors of MT1-MMP promoter transcription, cell-based, luciferase reporter, luminescence (AID 618);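 further: actives suppress MT1-MMP promoter-driven transcription so potencies describe inhibitors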
experimentalConditions: MT1-MMP promoter luciferase reporter cells
The whole screen tested about 87,000 compounds, of which about 540 (0.62%) were called active. No rule for the calls is given here. The sample as a whole holds a higher share of actives than the screen did. Entries with a potency or affinity are not part of this list.
Possible outcomes: true (1) for active, false (0) for inactive

# compound, discreteLabel
records = [
    ("Cn1c(=O)c2c(nc(NCc3ccccc3)n2Cc2ccc(F)cc2)n(C)c1=O", "false (0)"),
    ("O=C(Cc1ccc(F)cc1)NCCc1ccccc1", "false (0)"),
    ("CCCOc1ccccc1C1CC(=O)NC2=C1C(=O)CCC2 (stereo unspecified)", "false (0)"),
    ("O=C(CCl)N(c1ccccc1)c1c[nH]c2ccccc12", "true (1)"),
    ("CC(=O)N(c1ccc(Cl)cc1)c1c[nH]c2ccccc12", "false (0)"),
    ("CCOc1ccccc1C1CC(=O)NC2=C1C(=O)CCC2 (stereo unspecified)", "false (0)"),
]
